experimental.system: human recombinant PDE10 enzyme (PDE10A) (Homo sapiens, UniProt Q9Y233)
assay.name: PDE10 scintillation proximity assay (SPA), inhibition of human recombinant PDE10 enzyme activity
cond: geometric mean of 2-4 determinations unless otherwise indicated (b: ≧5 determinations; c: single determination)
pIC50: −log10 of the molar value.
Please mark condition met if the recorded pIC50 is equal to or greater than 9, and condition not met if it falls below.

Please review the following examples before continuing.
{"columns": ["compound", "assigned.class"],
 "data": [
  ["Cc1nc([C@H]2CCCO2)c2c(N3CCc4cnn(C)c4C3)ncnn12 (single isomer, unassigned)", "condition not met"],
  ["CCc1nn(C)c2c1CN(c1ncnn3c(C)nc([C@@H]4CCOC4)c13)CC2", "condition met"],
  ["Cc1nc([C@@H]2CCOC2)c2c(N3CCc4ccc(C(F)(F)F)nc4C3)ncnn12", "condition met"],
  ["Cc1nc([C@H]2CCOC2)c2c(N3CCc4c(c(C(C)C)nn4C)C3)ncnn12", "condition met"]
]}

Read the next record carefully.
Please check the record Cc1ncc2c(n1)CCN(c1ncnn3c(C)nc(-c4ccccc4F)c13)C2 and state if its pIC50 is at or above 9.
condition not met

====

Let's go through some recorded IC50 values for UniProt Q9QYJ6 together.

Past entries and their recorded results:
{"columns": ["molecule.smiles", "reported.measurement"],
 "data": [
  ["Cc1ccc2c(n1)CN(c1ncnn3c(C)nc(-c4ccccc4F)c13)CC2", "6.81 nM"],
  ["Cc1nc([C@@H]2CCOC2)c2c(N3CCc4nn(C)c(C5CC5)c4C3)ncnn12", "0.102 nM"],
  ["COc1ccc2c(c1)CCN(c1ncnn3c(C)nc([C@H]4CCOC4)c13)C2", "1.26 nM"],
  ["Cc1nc(-c2ccccc2F)c2c(N3CCc4ncncc4C3)ncnn12", "20 nM"],
  ["CCn1c(C2CC2)nc2c(c1=O)CN(c1ncnn3c(C)nc(-c4ccccc4F)c13)CC2", "0.497 nM"]
]}

Case Cc1nc([C@H]2CCOC2)c2c(N3CCc4c(cnn4C4CC4)C3)ncnn12 , UniProt Q9QYJ6, IC50 recorded as 11.6 nM

Case CCc1nc(C2CC2)nc2c1CN(c1ncnn3c(C)nc(-c4ccccc4F)c13)CC2 , UniProt Q9QYJ6, IC50 recorded as 0.265 nM

Case Cc1nc(C)c2c(n1)CCN(c1ncnn3c(C)nc(-c4ccccc4F)c13)C2 , UniProt Q9QYJ6, IC50 recorded as 1.65 nM

====

experimental.system: rat PDE10 enzyme (Rattus norvegicus (Rat), UniProt Q9QYJ6)
Sequence (Q9QYJ6 24-794): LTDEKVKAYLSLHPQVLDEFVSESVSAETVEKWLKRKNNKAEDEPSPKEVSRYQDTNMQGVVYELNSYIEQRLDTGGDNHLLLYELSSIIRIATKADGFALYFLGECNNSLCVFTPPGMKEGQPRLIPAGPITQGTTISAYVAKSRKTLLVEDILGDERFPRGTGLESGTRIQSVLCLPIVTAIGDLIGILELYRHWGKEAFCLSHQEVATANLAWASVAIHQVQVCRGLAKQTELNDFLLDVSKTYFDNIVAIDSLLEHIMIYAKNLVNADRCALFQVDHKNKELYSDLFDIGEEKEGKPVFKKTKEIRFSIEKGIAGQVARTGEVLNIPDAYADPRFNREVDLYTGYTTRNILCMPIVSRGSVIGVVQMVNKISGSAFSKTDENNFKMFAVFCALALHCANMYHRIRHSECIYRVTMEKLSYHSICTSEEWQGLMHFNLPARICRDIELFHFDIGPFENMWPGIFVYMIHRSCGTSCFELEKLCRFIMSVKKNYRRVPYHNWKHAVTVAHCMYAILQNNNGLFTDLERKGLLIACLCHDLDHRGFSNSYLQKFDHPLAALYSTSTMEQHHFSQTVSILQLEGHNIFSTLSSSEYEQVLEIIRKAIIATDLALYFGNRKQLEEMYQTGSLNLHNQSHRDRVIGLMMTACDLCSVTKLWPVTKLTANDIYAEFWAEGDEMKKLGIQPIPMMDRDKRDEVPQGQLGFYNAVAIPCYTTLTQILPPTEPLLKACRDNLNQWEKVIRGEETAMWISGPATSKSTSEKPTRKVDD
observed.property: IC50

Past entries and their recorded results:
{"columns": ["compound", "IC50"],
 "data": [
  ["COc1cc2c(cc1OC)CN(c1ncnn3c(C)nc(-c4ccccc4C)c13)CC2 [Example 62]", "3.87 nM"],
  ["Cc1nc([C@H]2CCOC2)c2c(N3CCc4cc(Cl)c(Cl)cc4C3)ncnn12 [Example 51]", "13.5 nM"],
  ["Cc1nc([C@H]2CCOC2)c2c(N3CCn4ncc(C(F)(F)F)c4C3)ncnn12 [Example 50]", "2.25 nM"]
]}

So for CCc1nn(C)c2c1CN(c1ncnn3c(C)nc(C4CCOCC4)c13)CC2 [Example 106] , the logged IC50 turned out to be 1.44 nM

====

Let's go through some recorded pIC50 values for rat PDE10 enzyme (Rattus norvegicus (Rat)) together.
// returns pIC50 (minus log10 of molar concentration), number only

Past entries and their recorded results:
{"columns": ["molecule.smiles", "reported.measurement"],
 "data": [
  ["Cc1nc(C2CCOCC2)c2c(N3CCn4ncc(C(F)(F)F)c4C3)ncnn12", 8.40],
  ["Cc1cc2c(cn1)CN(c1ncnn3c(C)nc(-c4ccccc4F)c13)CC2", 8.48]
]}

Case Cc1ncc2c(n1)CCN(c1ncnn3c(C)nc(-c4ccccc4F)c13)C2 , rat PDE10 enzyme (Rattus norvegicus (Rat)), pIC50 recorded as 8.16

Case Cc1nc(-c2ccc(F)cc2Cl)c2c(N3CCc4nc(C5CC5)ncc4C3)ncnn12 , rat PDE10 enzyme (Rattus norvegicus (Rat)), pIC50 recorded as 8.07

Case Cc1nc(-c2ccc(F)cc2Cl)c2c(N3CCc4cnn(C)c4C3)ncnn12 , rat PDE10 enzyme (Rattus norvegicus (Rat)), pIC50 recorded as 8.58

Case Cc1nc(-c2ccccc2F)c2c(N3CCc4nc(C5CC5)oc4C3)ncnn12 , rat PDE10 enzyme (Rattus norvegicus (Rat)), pIC50 recorded as 8.75

Case Cc1ccc2c(n1)CCN(c1ncnn3c(C)nc(-c4ccccc4F)c13)C2 , rat PDE10 enzyme (Rattus norvegicus (Rat)), pIC50 recorded as 9.31

Case Cc1nc(-c2ccccc2F)c2c(N3CCc4ncccc4C3)ncnn12 , rat PDE10 enzyme (Rattus norvegicus (Rat)), pIC50 recorded as 9.00

Case Cc1nc(CC(C)C)c2c(N3CCc4nc(C5CC5)oc4C3)ncnn12 , rat PDE10 enzyme (Rattus norvegicus (Rat)), pIC50 recorded as 8.34

====

experimental.system: human recombinant PDE10 enzyme (PDE10A) (Homo sapiens, UniProt Q9Y233)
assay.name: PDE10 scintillation proximity assay (SPA), inhibition of human recombinant PDE10 enzyme activity
cond: geometric mean of 2-4 determinations unless otherwise indicated (b: ≧5 determinations; c: single determination)
Listed compounds paired with reported pIC50
// returns pIC50 (minus log10 of molar concentration), number only

So for Cc1cc2c(cn1)CN(c1ncnn3c(C)nc([C@@H]4CCOC4)c13)CC2 , the logged pIC50 turned out to be 8.75

So for Cc1nc([C@@H]2CCOC2)c2c(N3CCc4cccnc4C3)ncnn12 , the logged pIC50 turned out to be 9.11

So for Cc1nc(-c2ccccc2F)c2c(N3CCc4ccc(C(F)(F)F)nc4C3)ncnn12 , the logged pIC50 turned out to be 7.67

So for Cc1nc([C@@H]2CCOC2)c2c(N3CCc4cc(C5CC5)ncc4C3)ncnn12 , the logged pIC50 turned out to be 9.33

So for Cc1nc(-c2ccccc2F)c2c(N3CCc4cnn(C(C)C)c4C3)ncnn12 , the logged pIC50 turned out to be 9.18

So for CCn1ncc2c1CN(c1ncnn3c(C)nc([C@@H]4CCOC4)c13)CC2 , the logged pIC50 turned out to be 8.99

So for Cc1nc([C@@H]2CCOC2)c2c(N3CCc4cnn(CC(C)C)c4C3)ncnn12 , the logged pIC50 turned out to be 9.12

So for Cc1nc([C@@H]2CCOC2)c2c(N3CCc4ncccc4C3)ncnn12 , the logged pIC50 turned out to be 8.85

So for Cc1nc([C@@H]2CCOC2)c2c(N3CCc4cnn(C(C)C)c4C3)ncnn12 , the logged pIC50 turned out to be 9.21

So for Cc1nc(-c2ccccc2F)c2c(N3Cc4c(cnn4C)C(C)C3)ncnn12 (stereo not drawn) , the logged pIC50 turned out to be 8.40

So for Cc1nc([C@@H]2CCOC2)c2c(N3CCc4cnn(CC(F)(F)F)c4C3)ncnn12 , the logged pIC50 turned out to be 8.59

So for Cc1nc(C)c2c(n1)CCN(c1ncnn3c(C)nc([C@@H]4CCOC4)c13)C2 , the logged pIC50 turned out to be 8.53

So for CCOc1nc(C)nc2c1CN(c1ncnn3c(C)nc([C@@H]4CCOC4)c13)CC2 , the logged pIC50 turned out to be 9.56

So for CCc1nc(C)nc2c1CN(c1ncnn3c(C)nc(-c4ccccc4F)c13)CC2 , the logged pIC50 turned out to be 9.24

So for Cc1nc([C@@H]2CCOC2)c2c(N3Cc4c(cnn4C)C(C)C3)ncnn12 (stereo partly drawn) , the logged pIC50 turned out to be 8.39

====

experimental.system: human recombinant PDE10 enzyme (PDE10A) (Homo sapiens, UniProt Q9Y233)
assay.name: PDE10 scintillation proximity assay (SPA), inhibition of human recombinant PDE10 enzyme activity
cond: geometric mean of 2-4 determinations unless otherwise indicated (b: ≧5 determinations; c: single determination)
Description: PDE10 activity was measured using a scintillation assay (SPA-based method) similar to that previously described by Seeger, T. F. et al., Brain Research 985 (2003) 113-126. The compounds' relative activity as PDE10 inhibitors was investigated by assaying a fixed amount of enzyme in the presence of the test compound and low substrate concentration (cAMP) such that an IC50 could be determined. […]
Listed compounds paired with reported pIC50
// returns pIC50 (minus log10 of molar concentration), number only

{"columns": ["molecule.smiles", "pIC50"],
 "data": [
  ["Cc1nc(-c2ccccc2F)c2c(N3CCc4cnn(C)c4C3)ncnn12", 8.48],
  ["Cc1nc([C@@H]2CCOC2)c2c(N3CCc4nc(C5CC5)n(C)c(=O)c4C3)ncnn12", 9.66],
  ["Cc1nc([C@@H]2CCOC2)c2c(N3CCc4ccc(C5CC5)nc4C3)ncnn12", 9.68],
  ["COc1cc2c(cn1)CN(c1ncnn3c(C)nc(-c4ccccc4F)c13)CC2", 8.24],
  ["COc1nccc2c1CN(c1ncnn3c(C)nc([C@@H]4CCOC4)c13)CC2", 9.24]
]}

So for CCc1nc(C2CC2)nc2c1CN(c1ncnn3c(C)nc([C@@H]4CCOC4)c13)CC2 , the logged pIC50 turned out to be 10.11

So for Cc1nc([C@@H]2CCOC2)c2c(N3CCc4noc(C5CC5)c4C3)ncnn12 , the logged pIC50 turned out to be 9.39

So for Cc1nc2c(s1)CN(c1ncnn3c(C)nc([C@H]4CCOC4)c13)CC2 , the logged pIC50 turned out to be 8.60

Origin of values: patent US8933224B2
